- targetOrTestSystem: T1, chimeric Hu-Leptin/Mu-EPO receptor (human; mouse, UniProt P48357 22-839; P14753 250-507)
- T1 sequence (looked up): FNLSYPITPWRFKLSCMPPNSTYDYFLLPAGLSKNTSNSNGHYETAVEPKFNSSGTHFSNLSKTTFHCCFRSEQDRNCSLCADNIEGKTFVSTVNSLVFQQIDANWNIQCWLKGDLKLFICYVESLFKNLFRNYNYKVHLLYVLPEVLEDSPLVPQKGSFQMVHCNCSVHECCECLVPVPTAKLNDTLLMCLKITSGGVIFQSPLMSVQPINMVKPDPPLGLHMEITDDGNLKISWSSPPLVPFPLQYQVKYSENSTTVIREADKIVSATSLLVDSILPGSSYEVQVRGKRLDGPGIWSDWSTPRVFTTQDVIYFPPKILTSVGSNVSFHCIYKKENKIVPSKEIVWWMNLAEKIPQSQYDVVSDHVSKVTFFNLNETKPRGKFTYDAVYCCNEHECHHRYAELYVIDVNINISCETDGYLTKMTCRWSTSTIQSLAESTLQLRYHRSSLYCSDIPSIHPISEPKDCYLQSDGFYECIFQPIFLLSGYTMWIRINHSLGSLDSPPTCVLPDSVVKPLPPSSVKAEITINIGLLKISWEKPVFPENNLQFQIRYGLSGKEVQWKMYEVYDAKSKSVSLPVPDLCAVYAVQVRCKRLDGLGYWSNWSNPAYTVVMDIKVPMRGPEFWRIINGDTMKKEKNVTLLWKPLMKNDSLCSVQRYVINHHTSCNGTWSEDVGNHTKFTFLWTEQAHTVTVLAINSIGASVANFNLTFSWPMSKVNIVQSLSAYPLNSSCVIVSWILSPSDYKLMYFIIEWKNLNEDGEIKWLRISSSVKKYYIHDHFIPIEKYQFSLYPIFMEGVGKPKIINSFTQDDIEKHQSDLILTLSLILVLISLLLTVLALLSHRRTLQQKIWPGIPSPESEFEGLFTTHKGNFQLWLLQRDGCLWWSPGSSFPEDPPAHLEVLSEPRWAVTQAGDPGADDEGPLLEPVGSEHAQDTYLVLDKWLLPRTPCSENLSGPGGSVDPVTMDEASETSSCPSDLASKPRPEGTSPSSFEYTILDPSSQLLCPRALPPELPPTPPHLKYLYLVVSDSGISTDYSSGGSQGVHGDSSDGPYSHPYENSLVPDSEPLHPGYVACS
- testSummary: cell-based or functional assay
recordedMetric: EC50 nM (Obeca STAT5 assay) (nM)
Respond with the bare value in nM.

Cmpd 70 (other) MGSLAEAKVLANRELDKYGVSDFYKRLIDKAKTVEGVEALKDAILAALPTGGEGGEGGEGGEGGEGGEASVPIQKVQDDTKTLIKTIVTRINDISHTQSVSSKQKVTGLEFIPGLHPILTLSKMDQTLAVYQQILTSMPSRNVIQISNDLENLRDLLHVLAFSKSCHLPQASGLETLESLGGVLEASGYSTEVVALSRLQGSLQDMLQQLDLSPGC
0.941

Continue with the binder presented below.
Data request, read-out EC50 nM (Obeca STAT5 assay), for Cmpd 68 (other) MLAEAKEAANAELDSYGVSDFYKRLIDKAKTVEGVEALKDAILAALPTGGGGSGGGSGGGSGGGSASVPIQKVQDDTKTLIKTIVTRINDISHTQSVSSKQKVTGLEFIPGLHPILTLSKMDQTLAVYQQILTSMPSRNVIQISNDLENLRDLLHVLAFSKSCHLPQASGLETLESLGGVLEASGYSTEVVALSRLQGSLQDMLQQLDLSPGC
0.71
